FYI, the data here is from ChEMBL document CHEMBL5550122.

Test system: MCF7
Assay: Cytotoxicity against human MCF7 cells assessed as reduction in cell viability at 100 to 400 uM preincubated for 4 hrs under dark condition followed by irradiation with blue light at 5 J.cm^-2 energy level and measured after 18 hrs by MTT assay
Type: functional, cell-based
Details: dose 100-400 µM, time 22.0 hrs
Active and inactive are the calls of the source. The rule behind the calls is not given here.
Parameter measured: Activity

COC(=O)CCC(=O)CNC(=O)CCn1cc(O)c(=O)cc1CO inactive
COC(=O)CCC(=O)CNC(=O)CCn1cc(O)c(=O)cc1C inactive
COC(=O)CCC(=O)CNC(=O)CCCCn1cc(O)c(=O)cc1C inactive
COC(=O)CCC(=O)CNC(=O)CCCCn1cc(O)c(=O)cc1CO inactive

Moving on to another compound below.
So what's the measured Activity for this one? `COC(=O)CCC(=O)CNC(=O)[C@H](Cc1ccccc1)NC(=O)Cn1ccc(=O)c(O)c1C`
inactive

----------
Tested on: A-375
Experiment: Cytotoxicity against human A-375 cells assessed as reduction in cell viability at 100 to 400 uM preincubated for 4 hrs under dark condition followed by irradiation with blue light at 5 J.cm^-2 energy level and measured after 18 hrs by MTT assay
Assay type: functional, cell-based
Details: dose 100-400 µM, time 22.0 hrs
Active and inactive are the calls of the source. The calls are words filed in the database; no cut-off is given here.
Parameter measured: Activity

Reference set (5 entries):
COC(=O)CCC(=O)CNC(=O)CCCCCn1cc(O)c(=O)cc1C inactive
COC(=O)CCC(=O)CNC(=O)Cn1cc(O)c(=O)cc1CO inactive
COC(=O)CCC(=O)CNC(=O)Cn1cc(O)c(=O)cc1C inactive
COC(=O)CCC(=O)CNC(=O)CCCCn1cc(O)c(=O)cc1C inactive
COC(=O)CCC(=O)CNC(=O)CCn1cc(O)c(=O)cc1CO inactive

So what's the measured Activity for this one? `COC(=O)CCC(=O)CNC(=O)CCCCCn1cc(O)c(=O)cc1CO`
inactive

Would you kindly repeat that for `COC(=O)CCC(=O)CNC(=O)[C@H](Cc1ccccc1)NC(=O)Cn1ccc(=O)c(O)c1C` ?
inactive

Would you kindly repeat that for `COC(=O)CCC(=O)CNC(=O)CCCn1cc(O)c(=O)cc1C` ?
inactive

Would you kindly repeat that for `COC(=O)CCC(=O)CNC(=O)CCCn1cc(O)c(=O)cc1CO` ?
inactive

Would you kindly repeat that for `COC(=O)CCC(=O)CNC(=O)CCn1cc(O)c(=O)cc1C` ?
inactive

Would you kindly repeat that for `COC(=O)CCC(=O)CNC(=O)[C@H](Cc1ccccc1)NC(=O)CCCCCn1cc(O)c(=O)cc1C` ?
inactive

Would you kindly repeat that for `COC(=O)CCC(=O)CNC(=O)[C@H](CC(C)C)NC(=O)Cn1ccc(=O)c(O)c1C` ?
inactive

Would you kindly repeat that for `COC(=O)CCC(=O)CNC(=O)[C@H](CC(C)C)NC(=O)Cn1cc(O)c(=O)cc1C` ?
inactive

Would you kindly repeat that for `COC(=O)CCC(=O)CNC(=O)[C@H](Cc1ccccc1)NC(=O)Cn1cc(O)c(=O)cc1C` ?
inactive

Would you kindly repeat that for `COC(=O)CCC(=O)CNC(=O)CCCCn1cc(O)c(=O)cc1CO` ?
inactive

----------
Test system: HeLa
Test: Cytotoxicity against human HeLa cells assessed as reduction in cell viability preincubated for 4 hrs under dark condition in presence of 5-aminolevulinic acid followed by irradiation with blue light at 2.5 J.cm^-2 energy level for 5 mins and measured after 18 hrs by MTT assay
Type: functional, cell-based
Conditions: light or radiation study
Parameter measured: pIC50
Note: pIC50 values are expressed as the negative base-10 logarithm of concentration in M.

Param readout= pIC50; system= HeLa; entry= `Cc1c(O)c(=O)ccn1C` ; returns value.
4.21
